# Tested on: HIV-1 isolate L100I
# Measurement Notes: Cytopathic cell killing assay, MT-4 cells, isolate L100I
# Format: cell-based
# Measurement Conditions: Table 10; values in μM; read-out: EC50, isolate L100I
Readout Type: EC50 (µM)
One number for each entry, in µM.

Specify EC50 for `[N-]=[N+]=NCc1cccc2c1nc(-c1c(F)cccc1F)n2Cc1c(F)cccc1F` and stop.
0.06

====

# Test system: HIV-1 isolate V108I
# Measurement Notes: Cytopathic cell killing assay, MT-4 cells, isolate V108I
# Type: cell-based
# Measurement Conditions: Table 10; values in μM; read-out: EC50, isolate V108I
Readout Type: EC50 (µM)
Numbers only, in µM.

Specify EC50 for [N-]=[N+]=NCc1cccc2c1nc(-c1c(F)cccc1F)n2Cc1c(F)cccc1F [Compound 70] and stop.
0.026
